- TGT: sGC α1/β1 heterodimer (Homo sapiens (Human), UniProt Q02108+Q02153)
- ASSAY: Cell-based sGC functional assay (cyclic GMP assay for sGC activator: CASA assay)
- REPORTED CONDITIONS: inflection point, 4P fit; CHO-K1/sGC cells; read-out: IP
- Experimental: Cell-Based sGC Functional Assay (Cyclic GMP Assay for sGC Activator: CASA Assay) Soluble guanylate cyclase (sGC) is a heme-containing enzyme that converts GTP to secondary messenger cGMP. […] A CHO-K1 cell line stably expressing the sGC α1/β1 heterodimer was generated using a standard transfection protocol. […] The level of intracellular cGMP was determined using an HTRF-based assay kit (CisBio, 62GM2PEC), which detects the displacement of a fluorescence labeled cGMP from its specific antibody. […]
pEC50: −log10 of the molar value.
Listing of recorded pEC50 by entry.
QUANTITY MEASURED: pEC50

>>> quantitative_readout("CC(C)(Cc1csc(C2(C)C(=O)Nc3nc(-c4nn(CCC(F)(F)F)c5ncc(F)cc45)nc(N)c32)n1)C(=O)O (stereo not drawn) [Example 85A]")
6.15
>>> quantitative_readout("CC(C)(Cc1coc(C2(C)C(=O)Nc3nc(-c4nn(Cc5c(F)cccc5F)c5cc(Cl)ccc45)nc(N)c32)n1)C(=O)O (stereo not drawn) [Example 182A]")
6.62
>>> quantitative_readout("CC(C)(Cn1cc(C2(C)C(=O)Nc3nc(-c4nn(Cc5ccccc5F)c5cc(Cl)ccc45)nc(N)c32)cn1)C(=O)O (stereo not drawn) [Example 171A]")
5.91

---

- TGT: human recombinant sGC enzyme (Homo sapiens (Human), UniProt Q02108+Q02153)
- ASSAY: Size Exclusion Chromatography (SEC) competition binding assay using [3H] Ex-77B as the radioligand
- REPORTED CONDITIONS: [3H] Ex-77B radioligand, 24 hours at 37° C.
pKi: −log10 of the molar value.
Use 10 as the dividing line for pKi, with the line itself on the Satisfied side and lower values as Not satisfied.

>>> discrete_label("CC1(c2ccc(CCC(=O)O)c(O)c2)C(=O)Nc2nc(-c3nn(CCC(F)(F)C(F)(F)F)c4cc(Cl)ccc34)nc(N)c21 (stereo not shown) [Example 122B]")
"Not satisfied"
>>> discrete_label("C[C@@]1(c2ccc(CCC(=O)NCC(=O)O)cc2)C(=O)Nc2nc(-c3nn(Cc4ccccc4F)c4ncccc34)nc(N)c21 [Example 100B]")
"Satisfied"
>>> discrete_label("CC(C)(Cc1coc(C2(C)C(=O)Nc3nc(-c4nn(CC5CCCCO5)c5ccccc45)nc(N)c32)n1)C(=O)O (single isomer, unassigned) [Example 230AB]")
"Not satisfied"
>>> discrete_label("CC1(c2ccc(CCC(=O)O)c(C#N)c2)C(=O)Nc2nc(-c3nn(CCC(F)(F)C(F)(F)F)c4cc(Cl)ccc34)nc(N)c21 (stereo not shown) [Example 120B]")
"Not satisfied"
>>> discrete_label("CC(C)(Cc1coc(C2(C)C(=O)Nc3nc(-c4nn(CCC(F)(F)C(F)(F)F)c5cc(Cl)ccc45)nc(N)c32)n1)C(=O)O (stereo not shown) [Example 2A]")
"Not satisfied"
>>> discrete_label("C[C@H](NC(=O)CCc1ccc([C@]2(C)C(=O)Nc3nc(-c4nn(Cc5ccccc5F)c5ncccc45)nc(N)c32)cc1)C(=O)O [Example 103B]")
"Satisfied"
>>> discrete_label("Cc1ccc(F)c(Cn2nc(-c3nc(N)c4c(n3)NC(=O)[C@@]4(C)c3nc(CC(C)(C)C(=O)O)cs3)c3ccc(Cl)cc32)c1 (single isomer, unassigned) [Example 214A]")
"Not satisfied"
>>> discrete_label("Cc1ccccc1Cn1nc(-c2nc(N)c3c(n2)NC(=O)[C@@]3(C)c2ccc(CCC(=O)O)cc2)c2ccc(Cl)cc21 [Example 68B]")
"Not satisfied"
>>> discrete_label("CC(C)(C)CCCn1nc(-c2nc(N)c3c(n2)NC(=O)[C@@]3(C)c2ccc(CCC(=O)O)cc2)c2ccc(Cl)cc21 [Example 52B]")
"Not satisfied"
>>> discrete_label("CCCCn1nc(-c2nc(N)c3c(n2)NC(=O)[C@@]3(C)c2ccc(CCC(=O)O)cc2)c2cccnc21 [Example 14B]")
"Not satisfied"
>>> discrete_label("CC(C)(CC(=O)O)c1csc([C@]2(C)C(=O)Nc3nc(-c4nn(CCC(F)(F)C(F)(F)F)c5ncccc45)nc(N)c32)n1 [Example 79B]")
"Not satisfied"
>>> discrete_label("Cc1ccc2c(-c3nc(N)c4c(n3)NC(=O)[C@@]4(C)c3ccc(CCC(=O)O)cc3)nn(CCCC(F)(F)F)c2n1 [Example 20B]")
"Not satisfied"
>>> discrete_label("CC1(c2ccc(CCCC(=O)O)cc2)C(=O)Nc2nc(-c3nn(CCC(F)(F)C(F)(F)F)c4ncccc34)nc(N)c21 (stereo not shown) [Example 116A]")
"Not satisfied"

// provenance: patent US10030027B2
